// data source = a melting point compilation (Tetko et al.)

parameter.measured: melting point

molecule="O=C(c1ccc(F)cc1)N1CCCCC(Cl)C1=O (stereo unspecified)" val="143 to 145 °C"
molecule=Nc1nc(-c2ccc(Cl)cc2)no1 val="248 to 250 °C"
molecule=Sc1nnc(COc2ccccc2Cl)o1 val="135 to 137 °C"
molecule=Cc1ccc(-c2nc3c(s2)C(=O)CCC3)cc1 val="128 to 130 °C"
molecule=COc1ccc(C)nc1N val="87 to 89 °C"
molecule=O=C(O)CCCn1nnc(-c2ccccc2)n1 val="83 to 85 °C"

Respectfully, I request melting point for each entry included below.
1. O=C(O)C1CSC(c2cccs2)N1 (stereo unspecified)
2. O=C(O)c1cc(/C=C/c2ccc(C(F)(F)F)cc2)nc2ccc(Br)cc12
3. Nc1ccc(S(=O)(=O)NC2CCC(O)CC2)cc1 (stereo unspecified)

Result block:
1: 148 to 150 °C; 2: 316 to 318 °C; 3: 154 to 156 °C

Respectfully, I request melting point for each entry included below.
1. Cc1ccc(-c2cnc(CCl)o2)cc1
2. O=C(O)c1cccc(S(=O)(=O)N2CCCCC2)c1
3. NC(=S)c1cc2ccccc2oc1=O
4. CC(C)n1ncc(C(N)=O)c1N
5. OC1CCCOc2cc(Br)ccc21 (stereo unspecified)
6. COc1ccc(C2(C(=O)O)CCC2)cc1
7. O=C(CCl)NC1CCN(Cc2ccccc2)CC1

Result block:
1: 58 to 60 °C; 2: 178 to 180 °C; 3: 241 to 243 °C; 4: 194 to 196 °C; 5: 73 to 75 °C; 6: 95 to 97 °C; 7: 117 to 119 °C

====

parameter.measured: melting point

Respectfully, I request melting point for each entry included below.
1. CCC(CC)(CNC(=O)OC(C)(C)C)C(=O)O
2. O=[N+]([O-])c1cc(Br)ccc1S(=O)(=O)Cl
3. N#Cc1cc([N+](=O)[O-])ccc1N1CCC(C(=O)O)CC1

Result block:
1: 130 to 132 °C; 2: 95 to 97 °C; 3: 161 to 163 °C

Respectfully, I request melting point for each entry included below.
1. O=C(O)C1=NN(Cc2ccc(F)cc2)C(=O)CC1
2. Cc1ccnc(N)c1C#N
3. COC(C)c1nc(C(=O)O)cs1 (stereo unspecified)
4. CCCC(=O)Nc1ccc(Cl)c(N)c1
5. CC(C)C1(C)NC(=O)NC1=O (stereo unspecified)
6. NC(=O)N1CCCC1
7. Cc1ccc(-c2nonc2N)cc1
8. COC(=O)c1nnc2ccccc2c1Cl

Result block:
["190 to 192 °C", "148 to 150 °C", "73 to 75 °C", "96 to 98 °C", "176 to 178 °C", "222 to 224 °C", "139 to 141 °C", "147 to 149 °C"]

====

parameter.measured: melting point

Examples with answers:
compound=Nc1ccc(CCn2cc(Br)cn2)cc1 val="65 to 67 °C"
compound=COc1ccc(Br)cc1NC(=O)C1CCC1 val="84 to 86 °C"

Respectfully, I request melting point for each entry included below.
1. CCOC(=O)c1c(N)sc(-c2ccccc2)c1C
2. NC(=O)NCCCc1ccccc1
3. CC1(c2ccc(F)cc2Cl)NC(=O)NC1=O (configuration not stated)
4. COc1cc(F)cc(F)c1S(=O)(=O)Cl
5. CC1c2ccccc2OC1C(=O)O (configuration not stated)
6. Clc1ccc(Cn2cc(Br)cn2)cc1

Result block:
94 to 96 °C
137 to 139 °C
214 to 216 °C
75 to 77 °C
121 to 123 °C
71 to 73 °C

Respectfully, I request melting point for each entry included below.
1. NNC(=O)c1ccc(COc2ccccc2)cc1
2. Cc1cc2c(cc1Br)NCC(C)O2 (configuration not stated)
3. CCc1ccccc1NC(=O)CCl
4. O=C(O)COc1ccc(Cl)c2cccnc12
5. CS(=O)(=O)Nc1cccc(Br)c1
6. NC(=S)c1cncnc1N
7. SCc1c(Cl)cccc1Cl

Result block:
1: 148 to 150 °C; 2: 93 to 95 °C; 3: 106 to 108 °C; 4: 209 to 211 °C; 5: 113 to 115 °C; 6: 197 to 199 °C; 7: 44 to 46 °C

Respectfully, I request melting point for each entry included below.
1. CCCCCCCCCCCCSc1nc2ccccc2c(=O)n1-c1ccccc1
2. O=C(O)C=Cc1ccc(OCc2ccncc2)cc1
3. N#Cc1c(F)cccc1Sc1ccccc1
4. O=C(O)c1ccc(F)cc1S
5. O=C(O)CSCC(=O)Nc1cccc(Br)c1
6. CC(C)(O)CN1CCNCC1
7. Nc1ncc(Cc2cccc(Br)c2)s1
8. CC(C)(C)NC(=O)c1ccc(N)cc1

Result block:
1. 62 to 64 °C
2. 298 to 300 °C
3. 108 to 110 °C
4. 171 to 173 °C
5. 63 to 65 °C
6. 61 to 63 °C
7. 105 to 107 °C
8. 124 to 126 °C

Respectfully, I request melting point for each entry included below.
1. Cn1c(C(=O)O)cc2ccccc21
2. O=C(O)/C=C/C1=C(Cl)c2ccccc2S1(=O)=O
3. Nc1sc2c(c1-c1nc3ccccc3s1)CCC2
4. NC(=O)c1cc2ccccc2c(Cl)n1
5. C=CC(=O)NC(=O)NC12CC3CC(CC(C3)C1)C2

Result block:
212 to 213 °C
266 to 268 °C
135 to 137 °C
264 to 266 °C
211 to 213 °C

Respectfully, I request melting point for each entry included below.
1. O=C(c1cc(S(=O)(=O)Cl)c[nH]1)N1CCCC1
2. NC1(C(=O)O)CCN(Cc2ccccc2)C1 (configuration not stated)
3. Cc1ccc(Cl)c(OCC(=O)O)c1
4. C/C(=N/O)c1cnn(C)c1
5. Cc1ncc(C(=O)O)s1
6. COC(=O)CNC(=O)CCCl
7. O=C(CCCl)N1CCN(c2ncccn2)CC1
8. Cn1cc(S(=O)(=O)N2CCCC2)cc1C(=O)O

Result block:
1: 191 to 193 °C; 2: 216 to 218 °C; 3: 134 to 136 °C; 4: 144 to 146 °C; 5: 209 to 211 °C; 6: 59 to 61 °C; 7: 139 to 141 °C; 8: 219 to 221 °C

Respectfully, I request melting point for each entry included below.
1. COc1ccc(CCC(=O)O)cc1N
2. O=C(O)C1CCN(c2ccc(F)c(F)c2)C1=O (configuration not stated)

Result block:
1. 121 to 123 °C
2. 154 to 156 °C

Respectfully, I request melting point for each entry included below.
1. Nc1nc(=O)cc[nH]1
2. CCCCOc1ccc(-c2nnc(N)[nH]2)cc1
3. Nc1nc(Cl)nnc1Cl
4. O=C(CC(=O)c1ccccc1)Nc1ccccc1
5. COc1cc(/C=C/C(=O)O)ccc1OCc1c(C)noc1C

Result block:
268 to 272 °C
200 to 202 °C
198 to 200 °C
107 to 109 °C
110 to 112 °C

Respectfully, I request melting point for each entry included below.
1. Cc1cc2cn[nH]c2cc1N
2. Cc1cccc(C(=O)CC#N)c1C
3. O=C(O)c1ccc2c(c1)COCO2

Result block:
1. 219 to 221 °C
2. 56 to 58 °C
3. 189 to 191 °C

Query block: Form field: reported melting point of O=C(O)C(Cc1ccccc1)N1CCCOC1=O (configuration not stated)
Result block: 163 to 165 °C

====

Could you please report measured melting point for the items listed next?

Respectfully, I request melting point for each entry included below.
1. Fc1ccc(-n2c(S)nc3ccccc32)c(F)c1
2. Nc1ccc(-c2cc[nH]c2)cc1
3. Cc1nc(Cc2ccccc2)sc1C(=O)O
4. Nc1cccc(S(=O)(=O)Nc2cccc(C(F)(F)F)c2)c1
5. CC(C)(C)OC(=O)NC1CC1
6. CCc1cc(O)ccc1Cl
7. Cc1nc2ccc(Br)cc2c(Cl)c1C
8. NNC(=O)CNc1ccccc1

Result block:
1. 191 to 193 °C
2. 99 to 101 °C
3. 236 to 238 °C
4. 98 to 100 °C
5. 62 to 64 °C
6. 45 to 50 °C
7. 99 to 101 °C
8. 126 to 128 °C

Respectfully, I request melting point for each entry included below.
1. Nc1cccc(N2CCOC2=O)c1
2. COc1ccc(C(=O)Nc2ncc(C)s2)cc1N

Result block:
["152 to 154 °C", "225 to 227 °C"]

Respectfully, I request melting point for each entry included below.
1. O=C(O)/C=C/c1cc(Cl)c2c(c1)OCO2
2. Cc1cc(Br)c2c(c1)C(=O)CCO2

Result block:
["259 to 261 °C", "84 to 86 °C"]
